Reported max response values for a set of compounds
Test: qHTS Assay for Lipid Storage Modulators (AID 1519)
Conditions: Drosophila S3 cells, BODIPY lipid droplet/cell ratio, laser cytometry; measured here: lipid channel max response; cells loaded with oleic acid
Inconclusive results are not listed.
assay_endpoint: max response

| compound | result |
| --- | --- |
| Cc1ccc2c(c1)CC[C@H]1CC(=O)CC[C@@]21C | 1.9% |
| OCC1O[C@H](OC2C(CO)O[C@@](O)(CO)C2O)C(O)C(O)C1O (stereo not given in full) | 24% |
| CCCC(=O)Nc1ccc(OC[C@@H](O)CNC(C)C)c(C(C)=O)c1 | -3.96% |
| CC(=O)CC(=O)[C@@]1(O)CC[C@@H]2[C@@H]3C=C(C)C4=CC(=O)CC[C@@H]4[C@H]3CC[C@]21C | -21% |
| CC(C(=O)O)C1CCC2C3CC=C4CC(O)CC[C@@]4(C)C3CC[C@]12C (stereo not given in full) | 12.2% |
| CC12CCC3C(CC3(C)C)C(C)(CCC1=O)O2 (stereo not given) | 26.9% |
| Nc1ncnc2c1nc(Cl)n2C1OC(CO)C(O)C1O (stereo not given) | 12.1% |
| CCOC(=O)c1c(C)cc(O)c(C)c1O | 23.2% |
| O=c1cc(-c2cccc(O)c2)oc2ccc(O)cc12 | 17.7% |
| Cc1cc(=O)oc2c(O)c(O)ccc12 | -9.34% |
| CC[C@@H]1OC(=O)[C@@H](C)[C@H](O[C@H]2C[C@@](C)(OC)[C@@H](O)[C@H](C)O2)C(C)[C@H](O[C@H]2O[C@@H](C)C[C@@H](N(C)C)[C@@H]2O)[C@@](C)(O)C[C@H](C)C(=O)[C@@H](C)[C@H](O)[C@@]1(C)O (stereo not given in full) | 7.04% |
| CCCC1CC(C(=O)N[C@H](C(C)O)C2OC(SC)[C@@H](O)C(O)C2O)N(C)C1 (stereo not given in full) | 38.8% |
| CC(CCC(=O)O)C1CCC2C3CC[C@H]4CC(O)CC[C@@]4(C)C3CC(O)[C@]12C (stereo not given in full) | 10.5% |
| CC1=CC2C(C(C)C)CCC(C)(O)C2CC1 (stereo not given) | -6.55% |
| C[C@@H](C(=O)O)c1ccc(C(=O)c2ccccc2)s1 | 2.32% |
| NC1=NCCN1CC(=O)O | 10.9% |
| O=C1O[C@H](CN2CCOCC2)CN1/N=C\c1ccc([N+](=O)[O-])o1 | -26.5% |
| COC(=O)CC1C(C)(C)C(OC(C)=O)[C@@]2(O)C=C3C4CC(=O)OC(c5ccoc5)[C@]4(C)CCC3[C@@]1(C)C2=O (stereo not given in full) | 21.8% |
| CC(C)=CC1C(C(=O)O)C1(C)C (stereo not given) | 29.9% |
| C=C(C)C1COc2cc3oc(=O)ccc3cc2O1 (stereo not given) | 28.8% |
